- targetOrSystem: T1, soluble Homo sapiens CD131 comprising a C-terminal 6xHis tag (human, UniProt P32927 17-438)
- T1 construct: truncated after Ser438, C-terminal 6xHis; also called shCD131; shβc
- T1 sequence: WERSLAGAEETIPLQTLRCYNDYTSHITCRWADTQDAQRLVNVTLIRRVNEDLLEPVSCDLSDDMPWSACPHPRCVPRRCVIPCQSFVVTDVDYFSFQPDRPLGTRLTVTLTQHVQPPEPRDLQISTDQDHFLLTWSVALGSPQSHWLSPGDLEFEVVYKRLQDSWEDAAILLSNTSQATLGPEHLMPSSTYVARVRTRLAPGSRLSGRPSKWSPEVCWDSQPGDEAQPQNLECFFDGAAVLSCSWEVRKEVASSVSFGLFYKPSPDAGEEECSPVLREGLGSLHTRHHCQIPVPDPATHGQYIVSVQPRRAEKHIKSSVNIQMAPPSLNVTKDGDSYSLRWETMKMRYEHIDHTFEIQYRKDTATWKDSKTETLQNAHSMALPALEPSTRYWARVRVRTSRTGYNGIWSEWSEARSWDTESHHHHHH
- protocolText: SPR, Fab over captured shCD131

[
  {
    "binder": "9A2-VR44 Fab (Fab, V domains shown, recombinant Fab) VH: EVQLLESGGGLVQPGGSLRLSCAASGFTFSHYHMLWVRQAPGKGLEWVSSIRSSGGFTYYADSVKGRFTISRDNSKNTLYLQMNSLRAEDTAVYYCARFYDSHFDIWGQGTMVTVSS VL: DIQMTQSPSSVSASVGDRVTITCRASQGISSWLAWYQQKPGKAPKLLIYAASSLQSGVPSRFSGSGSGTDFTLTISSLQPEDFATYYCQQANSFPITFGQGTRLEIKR",
    "Kd / nM": 5
  },
  {
    "binder": "9A2-VR27 Fab (Fab, V domains shown, recombinant Fab) VH: EVQLLESGGGLVQPGGSLRLSCAASGFTFTHYRVHWVRQAPGKGLEWVSSIRSSGGFTYYADSVKGRFTISRDNSKNTLYLQMNSLRAEDTAVYYCARFYDSFFDIWGQGTMVTVSS VL: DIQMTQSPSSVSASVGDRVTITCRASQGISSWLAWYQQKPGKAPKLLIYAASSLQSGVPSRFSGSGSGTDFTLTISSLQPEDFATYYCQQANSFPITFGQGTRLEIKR",
    "Kd / nM": 0.47
  },
  {
    "binder": "9A2-VR36 Fab (Fab, V domains shown, recombinant Fab) VH: EVQLLESGGGLVQPGGSLRLSCAASGFTFSHYHMLWVRQAPGKGLEWVSSIGGDKRQTYYADSVKGRFTISRDNSKNTLYLQMNSLRAEDTAVYYCARFYDSFFDIWGQGTMVTVSS VL: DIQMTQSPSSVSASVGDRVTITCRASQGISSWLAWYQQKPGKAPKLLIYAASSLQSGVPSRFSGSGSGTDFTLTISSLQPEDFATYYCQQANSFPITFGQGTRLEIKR",
    "Kd / nM": 0.3
  },
  {
    "binder": "9A2-VR41 Fab (Fab, V domains shown, recombinant Fab) VH: EVQLLESGGGLVQPGGSLRLSCAASGFTFSHYHMLWVRQAPGKGLEWVSSINGKGWTTYYADSVKGRFTISRDNSKNTLYLQMNSLRAEDTAVYYCARFYDSFFDIWGQGTMVTVSS VL: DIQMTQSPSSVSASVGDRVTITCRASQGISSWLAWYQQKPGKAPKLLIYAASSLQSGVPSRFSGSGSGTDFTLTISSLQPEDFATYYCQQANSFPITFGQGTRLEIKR",
    "Kd / nM": 0.46
  },
  {
    "binder": "9A2-VR39 Fab (Fab, V domains shown, recombinant Fab) VH: EVQLLESGGGLVQPGGSLRLSCAASGFTFSHYHMLWVRQAPGKGLEWVSSINGRGRVTYYADSVKGRFTISRDNSKNTLYLQMNSLRAEDTAVYYCARFYDSFFDIWGQGTMVTVSS VL: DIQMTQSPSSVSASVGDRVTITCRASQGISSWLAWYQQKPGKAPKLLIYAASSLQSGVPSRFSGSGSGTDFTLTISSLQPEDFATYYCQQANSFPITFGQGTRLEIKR",
    "Kd / nM": 0.27
  }
]

src = patent US20190062438A1
